What log10 IC50 was measured for each of the following?
- system_name: MEK (Homo sapiens)
- Construct: no tag is given for the 2D mutant
- Sequence (Q02750 whole entry S218D/S222D, form open): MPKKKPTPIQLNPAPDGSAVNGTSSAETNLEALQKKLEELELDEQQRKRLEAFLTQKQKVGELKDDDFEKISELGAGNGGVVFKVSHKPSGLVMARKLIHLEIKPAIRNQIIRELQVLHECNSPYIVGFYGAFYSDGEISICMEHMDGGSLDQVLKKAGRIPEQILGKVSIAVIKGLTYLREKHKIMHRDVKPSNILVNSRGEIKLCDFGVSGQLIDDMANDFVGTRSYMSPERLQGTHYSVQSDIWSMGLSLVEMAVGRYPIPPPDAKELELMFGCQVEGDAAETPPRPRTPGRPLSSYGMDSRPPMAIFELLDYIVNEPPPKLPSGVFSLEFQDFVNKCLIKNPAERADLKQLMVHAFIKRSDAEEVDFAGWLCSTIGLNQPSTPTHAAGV
- test_summary: in vitro MEK assay
Heads up: the numbers are on a log10 scale; they represent IC50 in nM.

[
  {
    "molecule": "CCOC(=O)c1c[nH]nc1NC(=O)c1cc(C(=O)O)c(Nc2ccc(I)cc2C)c(F)c1F",
    "log10 IC50": 3.04
  },
  {
    "molecule": "Cc1cc(I)ccc1Nc1c(C(=O)O)cc(C(=O)NCc2ccncc2)c(F)c1F",
    "log10 IC50": 3.23
  },
  {
    "molecule": "CNC(=O)c1cc(C(=O)NOCC2CC2)c(Nc2ccc(I)cc2C)c(F)c1F",
    "log10 IC50": 3.04
  },
  {
    "molecule": "CNC(=O)c1cc2c(c(F)c1F)N(c1ccc(I)cc1C)COC2=O",
    "log10 IC50": 3.82
  },
  {
    "molecule": "Cc1cc(I)ccc1Nc1c(C(=O)O)cc(C(=O)NCc2cccnc2)c(F)c1F",
    "log10 IC50": 3.16
  }
]

Can you give me log10 IC50 for all of these, one by one?
1. Cc1cc(I)ccc1Nc1c(C(=O)O)cc(C(=O)N2CCCC(CO)C2)c(F)c1F (stereo not shown)
2. Cc1cc(I)ccc1Nc1c(C(=O)O)cc(C(=O)Nc2ccc(Cl)nc2)c(F)c1F
3. Cc1cc(I)ccc1Nc1c(C(=O)O)cc(C(=O)NC(C)CO)c(F)c1F (stereo not shown)
4. CCn1nccc1NC(=O)c1cc(C(=O)O)c(Nc2ccc(I)cc2C)c(F)c1F

1: 2.48; 2: 2.99; 3: 3.34; 4: 2.98

Can you give me log10 IC50 for all of these, one by one?
1. Cc1cc(I)ccc1Nc1c(C(=O)O)cc(C(=O)Nc2ccc3cn[nH]c3c2)c(F)c1F
2. Cc1cc(I)ccc1Nc1c(C(=O)O)cc(C(=O)N2CCCCC2CCO)c(F)c1F (stereo not shown)
3. Cc1cc(I)ccc1Nc1c(C(=O)O)cc(C(=O)NCCc2ccccn2)c(F)c1F
4. Cc1cc(I)ccc1Nc1c(C(=O)O)cc(C(=O)N2CCC(O)C2)c(F)c1F (stereo not shown)
5. CNC(=O)c1cc(C(=O)O)c(Nc2ccc(I)cc2C)c(F)c1F
6. Cc1cc(I)ccc1Nc1c(C(=O)O)cc(C(=O)NCCN2CCOCC2)c(F)c1F
7. Cc1cc(I)ccc1Nc1c(C(=O)O)cc(C(=O)N2CCC(O)CC2)c(F)c1F
8. Cc1cc(I)ccc1Nc1c(C(=O)O)cc(C(=O)NCCOCCO)c(F)c1F

1: 3.04; 2: 3.34; 3: 3.52; 4: 2.94; 5: 3.38; 6: 3.18; 7: 3.26; 8: 3.14

Can you give me log10 IC50 for all of these, one by one?
1. Cc1cc(I)ccc1Nc1c(C(=O)NOCC2CC2)cc(C(=O)N(C)C)c(F)c1F
2. Cc1cc(I)ccc1Nc1c(C(=O)O)cc(C(=O)N2CCC(CCO)CC2)c(F)c1F

[3.63, 2.18]
